Reference source: patent US20250237649A1

Molecular target: Hip1 (Mycobacterium tuberculosis, UniProt P9WHR3)
Sequence (P9WHR3 31-520): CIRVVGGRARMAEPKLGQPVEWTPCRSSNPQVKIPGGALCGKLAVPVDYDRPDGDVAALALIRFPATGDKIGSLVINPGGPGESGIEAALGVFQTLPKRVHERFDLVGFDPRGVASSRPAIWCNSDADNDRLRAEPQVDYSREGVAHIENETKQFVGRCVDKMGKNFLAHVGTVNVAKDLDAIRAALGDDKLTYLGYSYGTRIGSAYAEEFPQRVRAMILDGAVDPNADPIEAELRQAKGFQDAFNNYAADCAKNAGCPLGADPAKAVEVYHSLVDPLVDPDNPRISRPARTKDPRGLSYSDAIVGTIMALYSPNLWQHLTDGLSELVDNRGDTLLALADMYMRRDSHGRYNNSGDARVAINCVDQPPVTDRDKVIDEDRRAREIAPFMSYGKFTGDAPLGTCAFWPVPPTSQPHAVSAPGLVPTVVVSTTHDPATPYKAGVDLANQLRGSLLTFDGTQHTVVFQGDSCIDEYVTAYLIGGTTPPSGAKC
valueType: pKi
The meaning of pKi here: minus log10 of the concentration in molar units.

**Q:** Given COC(=O)C(=O)[C@H](C[C@@H]1CCNC1=O)NC(=O)[C@H](CCCCN)NC(=O)[C@H](Cc1ccccc1)NC(=O)OCc1ccccc1 , state its recorded pKi.
**A:** 9.93
